Test: rapamycin-like changes in RPL19A-GFP expression – cell-based, S. cerevisiae, multiplex flow cytometry, primary screen (AID 1862);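 also: lower values mimic rapamycin by blocking the RPL19A rise seen in DMSO cells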
Settings: S. cerevisiae RPL19A-GFP strain, flow cytometry fluorescence, 3 h; at 10 µM; hits give low values
Records with an inconclusive call do not appear.
measurementName: percent of DMSO control GFP (%)
Give bare numbers, in %.

# compound, unitAbbreviation, quantitativeReadout
measured = [
    ("c1coc(-c2nnc3n2C2(CCCC2)Cc2ccccc2-3)c1", "%", 94.2),
    ("CC1(C)C(=O)OC(/C=C\\c2ccccc2)C(C)(C)C1=O (stereo not drawn)", "%", 98.4),
    ("O=[N+]([O-])c1ccc(O)c2ncccc12", "%", 99.7),
    ("COc1ccc(NC(=S)N2CCN(CCN3C(=O)c4cccc5cccc(c45)C3=O)CC2)cc1", "%", 101),
    ("CC(C)N(C(=O)Cc1ccccc1[N+](=O)[O-])C(C)C", "%", 104),
]

For every record below, what is its percent of DMSO control GFP?
1. CS(=O)(=O)Nc1cccc(C(=O)CC2(O)C(=O)Nc3ccc(Br)cc32)c1 (stereo not drawn)
2. CC1CCCC(C)N1NC(=O)c1ccc(Cl)c(S(N)(=O)=O)c1 (stereo not drawn)
3. CCN1CCN(C(=S)c2ccc(OC)cc2)CC1
4. N/C(=N\OC(=O)c1cccc(Br)c1)c1ccncc1
5. CC(=O)c1cccc(NC(=O)N[C@@H](CC(C)C)C(=O)O)c1
6. c1ccc(-c2ccc(C(c3ccccc3)n3ccnc3)cc2)cc1 (stereo not drawn)

1: 85.9; 2: 88; 3: 101; 4: 103; 5: 104; 6: 99.8

###

Field: response. Provide a value for each of the molecules that follow.
Molecular target: Beta-2 adrenergic receptor (Homo sapiens) (UniProt P07550)
Sequence (P07550 whole entry, looked up): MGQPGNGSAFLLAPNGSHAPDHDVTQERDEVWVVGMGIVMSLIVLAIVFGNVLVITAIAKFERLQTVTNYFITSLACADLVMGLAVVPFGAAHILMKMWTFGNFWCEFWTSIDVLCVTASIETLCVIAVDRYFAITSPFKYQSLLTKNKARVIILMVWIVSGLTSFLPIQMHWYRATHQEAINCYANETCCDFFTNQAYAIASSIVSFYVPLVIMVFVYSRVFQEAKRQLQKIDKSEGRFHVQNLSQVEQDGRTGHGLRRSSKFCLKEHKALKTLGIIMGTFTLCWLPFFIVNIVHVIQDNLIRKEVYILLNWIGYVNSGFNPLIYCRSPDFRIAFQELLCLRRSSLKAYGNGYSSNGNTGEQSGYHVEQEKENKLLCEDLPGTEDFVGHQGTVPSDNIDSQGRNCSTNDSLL
Assay: agonist-induced loss of surface beta2AR – cell-based, FAP fluorogen, flow cytometry, validation set, pilot screen (AID 504459);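 also: agonist-driven loss of surface beta2AR via internalization measured by FAP dye flow cytometry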
Details: Am2.2-beta2AR cells, at 10 µM, hits give high values
Square brackets hold non-standard residues; d marks the D form. Peptide text beside a SMILES is read from it. ξ: configuration not given here. ξV = CC(C)C(N)C(=O)O
Answers are plain numbers, in %.

# molecule, quantitativeReadout
data = [
    ("Cc1ccc(N(CC2=NCCN2)c2cccc(O)c2)cc1", -2.19),
    ("COc1ccc(CNC(=O)c2c(O)c3cccc4c3n(c2=O)CCC4)cc1", 4.63),
    ("NS(=O)(=O)c1ccc(CCNC(=O)C2CCCN2C(=O)OCc2ccccc2)cc1 (stereo unspecified)", -16.9),
]

For every record below, what is its response?
1. Cc1cc(C)c(NC(=O)NC(=O)C(Cl)(Cl)Cl)c(C)c1
2. COc1ccc(O)c(C(=O)/C=C/c2cc3ccccc3o2)c1
3. Cn1c(=O)c(C(=O)NCCO)c(O)c2ccccc21

[-6.36, 23, -29.6]

For every record below, what is its response?
1. Fc1ccc(C(c2ccc(F)cc2)N2CCN(C/C=C/c3ccccc3)CC2)cc1
2. O=C(Cc1ccccc1)NNC(=O)Cc1ccccc1
3. C#C[C@]1(O)CC[C@H]2[C@@H]3CCc4cc(O)ccc4[C@H]3CC[C@@]21C
4. CC(=O)NC(C(=O)NCC(N)=O)C(C)C (stereo unspecified) (Ac-[ξV]-Gly-NH2)
5. CCCCCC(=O)O[C@]1(C(C)=O)CC[C@H]2[C@@H]3CCC4=CC(=O)CC[C@]4(C)[C@H]3CC[C@@]21C
6. CC(=O)N1CCN(c2ccc(OC[C@H]3CO[C@](Cn4ccnc4)(c4ccc(Cl)cc4Cl)O3)cc2)CC1

[6.79, -7.57, -0.6, -7.22, 6.12, 0.01]

For every record below, what is its response?
1. CN(Cc1c(C(=O)N(C)Cc2ccccc2)nc2ccccn12)CC1Cc2ccccc2O1 (stereo unspecified)
2. CN1[C@@H]2CC[C@H]1CC(OC(=O)C(CO)c1ccccc1)C2 (stereo partly specified)
3. O=C(O)c1ccccc1C(=O)OCCCCOC(=O)c1ccccc1C(=O)O
4. O=C(NC(=S)Nc1ccc(N2CCN(C(=O)c3ccccc3)CC2)cc1)c1cccs1

0.21
-0.25
-3.48
-15.7
